// provenance: patent US5512562A

# Assayed System: dopamine D1 receptor (Rattus norvegicus, UniProt P18901)
# Sequence (P18901 whole entry): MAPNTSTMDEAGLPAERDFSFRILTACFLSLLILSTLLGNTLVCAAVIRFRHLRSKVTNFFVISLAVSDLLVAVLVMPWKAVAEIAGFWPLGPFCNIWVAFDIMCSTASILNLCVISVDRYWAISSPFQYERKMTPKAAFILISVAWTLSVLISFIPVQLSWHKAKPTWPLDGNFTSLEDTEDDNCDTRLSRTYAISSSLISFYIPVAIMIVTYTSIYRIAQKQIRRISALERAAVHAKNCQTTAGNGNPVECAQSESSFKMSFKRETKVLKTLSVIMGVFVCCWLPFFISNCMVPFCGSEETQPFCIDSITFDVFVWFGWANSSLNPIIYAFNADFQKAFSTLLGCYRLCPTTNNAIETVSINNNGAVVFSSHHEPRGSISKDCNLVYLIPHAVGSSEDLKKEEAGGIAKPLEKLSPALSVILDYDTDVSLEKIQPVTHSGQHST
# Assay: binding to dopamine D1 receptor in homogenates from rat striatum
Quantity Name: IC50 (nM)
# unit: nM | format: bare number

Could you please provide reported IC50 for CN1CCc2c(ccc3ccoc23)C(c2cccc3ccoc23)C1 (racemic) ? Thanks!
12
